# assay.protocol: Chemical stability of the salts (stress at 60° C. and 75% relative humidity, purity by UHPLC)
# Type: physicochemical
# measurement.context: 1 day at 60° C. and 75% relative humidity; purity difference; in %
Counter-ions that a name gives are not always drawn.
property: Difference between reference and 1 day stressed sample
Numbers only.

Sample answers from the record:
Documented Difference between reference and 1 day stressed sample of COc1cccc2c1CCOC2C1=NCCN1 (stereo not shown) [Hydrochloric acid salt Form 1] : 8.7

Reported Difference between reference and 1 day stressed sample of COc1cccc2c1CCOC2C1=NCCN1 (stereo not shown) [Glycolic acid salt Form 1] : 0.5

Given item COc1cccc2c1CCOC2C1=NCCN1 [L-tartaric acid salt Form 1] , the value recorded as its Difference between reference and 1 day stressed sample is 1.0

Continue with the next compound.
Note to self: Difference between reference and 1 day stressed sample recorded for COc1cccc2c1CCOC2C1=NCCN1 (stereo not shown) [Malonic acid salt Form 1] was 1.5

====

# assay.protocol: Chemical stability of the salts (stress at 60° C. and 75% relative humidity, purity by UHPLC)
# Type: physicochemical
# measurement.context: unstressed sample, UHPLC
Structures can show the parent of a compound that is named as a salt.
property: Purity (%) of reference
Answers are plain numbers, in %.

Field Purity (%) of reference (entry COc1cccc2c1CCOC2C1=NCCN1 (centres unmarked) [Oxalic acid salt Form 1] ) reads 97.7

The reported value for COc1cccc2c1CCOC2C1=NCCN1 (centres unmarked) [Ethane-1,2-disulfonic acid salt Form 1] in terms of Purity (%) of reference is 99.8

Just so you know, measured Purity (%) of reference for COc1cccc2c1CCOC2C1=NCCN1 (centres unmarked) [Saccharin salt] came out at 97.1

# per-item lookup of Purity (%) of reference; items listed below
1. COc1cccc2c1CCOC2C1=NCCN1 (centres unmarked) [Glycolic acid salt Form 1]
2. COc1cccc2c1CCOC2C1=NCCN1 (centres unmarked) [Mucic acid salt Form 1]
3. COc1cccc2c1CCOC2C1=NCCN1 [L-tartaric acid salt Form 1]
4. COc1cccc2c1CCOC2C1=NCCN1 (centres unmarked) [Maleic acid salt Form 1]
5. COc1cccc2c1CCOC2C1=NCCN1 (centres unmarked) [Adipic acid salt Form 1]

[99.8, 99.2, 99.0, 99.6, 99.1]

Please state Purity (%) of reference for every molecule in the list that follows.
1. COc1cccc2c1CCOC2C1=NCCN1 (centres unmarked) [Malonic acid salt Form 1]
2. COc1cccc2c1CCOC2C1=NCCN1 (centres unmarked) [Hydrobromic acid salt Form 1]
3. COc1cccc2c1CCOC2C1=NCCN1 (centres unmarked) [Hydrochloric acid salt Form 1]
4. COc1cccc2c1CCOC2C1=NCCN1 [L-tartaric acid salt Form 2]
5. COc1cccc2c1CCOC2C1=NCCN1 (centres unmarked) [Glutaric acid salt Form 1]
6. COc1cccc2c1CCOC2C1=NCCN1 (centres unmarked) [Fumaric acid salt Form 2]

1. 98.2
2. 98.3
3. 98.6
4. 98.6
5. 96.4
6. 97.2

====

# assay.protocol: Chemical stability of the salts (stress at 60° C. and 75% relative humidity, purity by UHPLC)
# Assay type: physicochemical
# measurement.context: 1 day at 60° C. and 75% relative humidity, UHPLC
Structures can show the parent of a compound that is named as a salt.
For each record, write down the corresponding Purity (%) of 1 day stress samples.
One number for each entry, in %.

Take a look at these entries with their results.
For COc1cccc2c1CCOC2C1=NCCN1 (stereo not shown) [Fumaric acid salt Form 2] the molecule record lists Purity (%) of 1 day stress samples as 97.6

Looking up COc1cccc2c1CCOC2C1=NCCN1 (stereo not shown) [Adipic acid salt Form 1] , I found its Purity (%) of 1 day stress samples recorded as 94.7

Just so you know, measured Purity (%) of 1 day stress samples for COc1cccc2c1CCOC2C1=NCCN1 [L-tartaric acid salt Form 2] came out at 97.5

Others:
// Purity (%) of 1 day stress samples value for COc1cccc2c1CCOC2C1=NCCN1 (stereo not shown) [Ethane-1,2-disulfonic acid salt Form 1] : 99.8

====

# assay.protocol: Chemical stability of the salts (stress at 60° C. and 75% relative humidity, purity by UHPLC)
# Assay type: physicochemical
# measurement.context: 14 days at 60° C. and 75% relative humidity; purity difference; in %
Where a name gives a salt, the structure may show the parent alone.
Field: label. Allowed values: yes (Difference between reference and 14 day stressed sample < 30) or no (Difference between reference and 14 day stressed sample >= 30).

Determine if COc1cccc2c1CCOC2C1=NCCN1 (centres unmarked) [Malonic acid salt Form 1] shows Difference between reference and 14 day stressed sample strictly lower than 30. yes

Field: below-cutoff. Rule: recorded Difference between reference and 14 day stressed sample strictly less than 30. Subject: COc1cccc2c1CCOC2C1=NCCN1 [L-tartaric acid salt Form 2] yes

More entries:
API: query returns whether the molecule falls strictly under 30 in Difference between reference and 14 day stressed sample. Query: COc1cccc2c1CCOC2C1=NCCN1 (centres unmarked) [Ethane-1,2-disulfonic acid salt Form 1] yes

Please let me know if COc1cccc2c1CCOC2C1=NCCN1 (centres unmarked) [Glutaric acid salt Form 1] shows Difference between reference and 14 day stressed sample below 30. no

Report whether reported Difference between reference and 14 day stressed sample is lower than 30 (strictly) for COc1cccc2c1CCOC2C1=NCCN1 (centres unmarked) [Adipic acid salt Form 1] no

Does the reported Difference between reference and 14 day stressed sample of COc1cccc2c1CCOC2C1=NCCN1 (centres unmarked) [Saccharin salt] stay below 30? yes

I wonder whether COc1cccc2c1CCOC2C1=NCCN1 (centres unmarked) [Fumaric acid salt Form 2] has Difference between reference and 14 day stressed sample below 30. Can you tell? yes

Field: below-cutoff. Rule: recorded Difference between reference and 14 day stressed sample strictly less than 30. Subject: COc1cccc2c1CCOC2C1=NCCN1 (centres unmarked) [Maleic acid salt Form 1] no

Is the reported Difference between reference and 14 day stressed sample for COc1cccc2c1CCOC2C1=NCCN1 (centres unmarked) [Hydrobromic acid salt Form 1] strictly below 30? yes

Determine if COc1cccc2c1CCOC2C1=NCCN1 (centres unmarked) [Mucic acid salt Form 1] shows Difference between reference and 14 day stressed sample strictly lower than 30. no

Could you please tell me whether Difference between reference and 14 day stressed sample recorded for COc1cccc2c1CCOC2C1=NCCN1 (centres unmarked) [Oxalic acid salt Form 1] is less than 30? yes

Hello, I'm reviewing records and need to know if Difference between reference and 14 day stressed sample of COc1cccc2c1CCOC2C1=NCCN1 [L-tartaric acid salt Form 1] is below 30. Could you check? yes

Take the molecule COc1cccc2c1CCOC2C1=NCCN1 (centres unmarked) [Glycolic acid salt Form 1] and say whether its Difference between reference and 14 day stressed sample is less than 30. no

====

# assay.protocol: Physical stability of the salts (storage at elevated temperature and relative humidity, re-analysis by XRPD)
# Format: physicochemical
# measurement.context: solids exposed for 2 or 3 weeks at 40° C. and 70-80% relative humidity, XRPD
Structures can show the parent of a compound that is named as a salt.
property: Form after stability

Notebook: COc1cccc2c1CCOC2C1=NCCN1 [L-tartaric acid salt Form 2] , Form after stability read as Form 1

Entry COc1cccc2c1CCOC2C1=NCCN1 (centres unmarked) [Hydrobromic acid salt Form 1] , Form after stability reported as Form 1

// COc1cccc2c1CCOC2C1=NCCN1 (centres unmarked) [Saccharin salt Form 2] : Form after stability value = Form 2

// field: Form after stability; key: COc1cccc2c1CCOC2C1=NCCN1 (centres unmarked) [Cyclamic acid salt Form 1] ; value = Form 2

====

# assay.protocol: Chemical stability of the salts (stress at 60° C. and 75% relative humidity, purity by UHPLC)
# Type: physicochemical
# measurement.context: 1 day at 60° C. and 75% relative humidity; purity difference; in %
Counter-ions that a name gives are not always drawn.
# strict inequality: Difference between reference and 1 day stressed sample < 2 yields label 1, everything else yields label 0

Say whether its Difference between reference and 1 day stressed sample is strictly beneath 2. Entry: COc1cccc2c1CCOC2C1=NCCN1 (stereo not shown) [Fumaric acid salt Form 2] label 1

Next:
Report whether reported Difference between reference and 1 day stressed sample is lower than 2 (strictly) for COc1cccc2c1CCOC2C1=NCCN1 (stereo not shown) [Maleic acid salt Form 1] label 0

Bench note: check whether COc1cccc2c1CCOC2C1=NCCN1 (stereo not shown) [Saccharin salt] shows Difference between reference and 1 day stressed sample below 2 label 0

Please let me know if COc1cccc2c1CCOC2C1=NCCN1 (stereo not shown) [Ethane-1,2-disulfonic acid salt Form 1] shows Difference between reference and 1 day stressed sample below 2. label 1

Is Difference between reference and 1 day stressed sample strictly under 2 for the entry COc1cccc2c1CCOC2C1=NCCN1 (stereo not shown) [Adipic acid salt Form 1] ? label 0

Does the reported Difference between reference and 1 day stressed sample of COc1cccc2c1CCOC2C1=NCCN1 (stereo not shown) [Hydrobromic acid salt Form 1] stay below 2? label 1

# check: Difference between reference and 1 day stressed sample < 2 for COc1cccc2c1CCOC2C1=NCCN1 (stereo not shown) [Mucic acid salt Form 1] label 1

====

# assay.protocol: Physical stability of the salts (storage at elevated temperature and relative humidity, re-analysis by XRPD)
# Type: physicochemical
# measurement.context: solids exposed for 2 or 3 weeks at 40° C. and 70-80% relative humidity, re-analyzed by XRPD
Counter-ions that a name gives are not always drawn.
property: Physical stability

Answered examples (5):
Physical stability reading for COc1cccc2c1CCOC2C1=NCCN1 (stereo not shown) [Mucic acid salt Form 1] : Stable

The reported Physical stability of the molecule COc1cccc2c1CCOC2C1=NCCN1 [L-tartaric acid salt Form 2] was Unstable

Field Physical stability (entry COc1cccc2c1CCOC2C1=NCCN1 (stereo not shown) [Methanesulfonic acid salt Form 1] ) reads Unstable

The molecule listed as COc1cccc2c1CCOC2C1=NCCN1 (stereo not shown) [Naphthalene-1,5-disulfonic acid salt Form 1] has a reported Physical stability of Stable

In plain terms, COc1cccc2c1CCOC2C1=NCCN1 (stereo not shown) [Saccharin salt Form 2] has a documented Physical stability of Stable

// for each molecule in input: emit Physical stability
1. COc1cccc2c1CCOC2C1=NCCN1 (stereo not shown) [Cyclamic acid salt Form 1]
2. COc1cccc2c1CCOC2C1=NCCN1 (stereo not shown) [Glycolic acid salt Form 1]
3. COc1cccc2c1CCOC2C1=NCCN1 (stereo not shown) [2-Ketoglutaric acid salt Form 1]
4. COc1cccc2c1CCOC2C1=NCCN1 (stereo not shown) [Glutaric acid salt Form 1]
5. COc1cccc2c1CCOC2C1=NCCN1 (racemic) [D,L-Lactic acid salt Form 1]
6. COc1cccc2c1CCOC2C1=NCCN1 (stereo not shown) [Maleic acid salt Form 1]

1. Unstable
2. Stable
3. Unstable
4. Stable
5. Unstable
6. Stable
